Each recorded value in this set is attributed to ChEMBL document CHEMBL3784992.

# EXPERIMENTAL_SYSTEM: UniProt:P03372
# Sequence (P03372 whole entry): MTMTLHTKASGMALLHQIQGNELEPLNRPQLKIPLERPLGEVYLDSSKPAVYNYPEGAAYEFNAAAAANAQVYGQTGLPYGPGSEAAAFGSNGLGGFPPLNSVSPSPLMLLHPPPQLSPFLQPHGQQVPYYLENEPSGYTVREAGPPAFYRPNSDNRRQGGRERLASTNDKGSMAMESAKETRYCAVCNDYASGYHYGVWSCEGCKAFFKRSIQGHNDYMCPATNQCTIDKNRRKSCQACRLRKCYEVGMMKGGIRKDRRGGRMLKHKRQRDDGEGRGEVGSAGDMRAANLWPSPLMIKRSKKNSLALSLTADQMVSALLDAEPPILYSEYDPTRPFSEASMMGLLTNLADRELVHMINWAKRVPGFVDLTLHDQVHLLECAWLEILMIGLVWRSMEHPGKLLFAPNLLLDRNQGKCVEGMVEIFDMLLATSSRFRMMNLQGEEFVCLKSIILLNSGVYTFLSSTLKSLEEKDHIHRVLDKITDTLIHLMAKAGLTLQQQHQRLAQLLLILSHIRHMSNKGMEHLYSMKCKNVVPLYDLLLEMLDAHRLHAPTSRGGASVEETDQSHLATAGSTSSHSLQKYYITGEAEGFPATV
# ASSAY_TEXT: Agonist activity at estrogen receptor in human MCF7 cells assessed as ERE-mediated transcriptional activity after 24 hrs by luciferase assay
Would you kindly list EC50 for each of these compounds?
Numbers only, in nM.

As a guide, the following entries are already answered.
[[record]]
input_smiles = "C=CCCCON=C(c1ccc(O)cc1)c1ccc(O)cc1"
measure = "EC50"
measured_value = 46

[[record]]
input_smiles = "CC(C)CCON=C(c1ccc(O)cc1)c1ccc(O)cc1"
measure = "EC50"
measured_value = 77


-- ask Looking for the measured EC50 of CCCCON=C(c1ccc(O)cc1)c1ccc(O)cc1 , can you help?
-- reply 75
